- System: breast cancer cell line, SK-Br3
- experiment-description: Inhibitory effect on growth of cancer cell line SK-Br3, SRB
- Type: cell-based
- condition-info: Homo sapiens, SK-BR-3, 72 h, overexpressed EGFR2 (HER-2)
Exam item: assign YES to entries whose IC50 is below 200 nM and NO to entries at or above 200 nM. Note that a value of exactly 200 nM receives NO.

Reference set (8 entries):
Query: Is IC50 strictly under 200 nM for the entry `C=CC(=O)Nc1cc2c(Nc3ccc(Br)cc3F)ncnc2cc1OCCNC(=O)CCOC` ?
Reply: NO

Query: A record lists `C=CC(=O)Nc1cc2c(Nc3cc(Cl)c(Cl)cc3F)ncnc2cc1OCCNC(=O)CN(C)C` . Is its IC50 below 200 nM?
Reply: YES

Query: Is the reported IC50 for `C=CC(=O)Nc1cc2c(Nc3ccc(Br)c(Cl)c3F)ncnc2cc1OCCNC(=O)NC(C)(C)C` strictly below 200 nM?
Reply: NO

Query: Just wondering, is IC50 of `C=CC(=O)Nc1cc2c(Nc3cc(F)c(Br)cc3F)ncnc2cc1OCCNC(C)=O` below 200 nM?
Reply: YES

Query: # check: IC50 < 200 nM for `C=CC(=O)Nc1cc2c(Nc3ccc(Br)cc3F)ncnc2cc1OCCNC(=O)C(F)(F)F`
Reply: NO

Query: Lab note: confirm whether the reported IC50 for this compound is below 200 nM, equality not counting. compound: `C=CC(=O)Nc1cc2c(Nc3ccc(Br)cc3F)ncnc2cc1OCc1ccncc1`
Reply: NO

Query: Strictly below 200 nM: is that where IC50 of `C=CC(=O)Nc1cc2c(Nc3ccc(Br)c(Cl)c3F)ncnc2cc1OCCNC(=O)CCOC` sits?
Reply: NO

Query: Hi there! Is IC50 for C=CC(=O)Nc1cc2c(Nc3ccc(Br)cc3F)ncnc2cc1OCC(C)NC(=O)CCN(CC)CC (stereo not drawn) below 200 nM, do you know?
Reply: YES

More entries:
Query: In plain terms, does `C=CCNC(=O)NCCOc1cc2ncnc(Nc3ccc(Br)cc3F)c2cc1NC(=O)C=C` come in under 200 nM for IC50?
Reply: YES

Query: In plain terms, does `C=CC(=O)Nc1cc2c(Nc3ccc(Br)c(F)c3F)ncnc2cc1OCCNC(=O)CCN1CCCCC1` come in under 200 nM for IC50?
Reply: NO

Query: Lab note: IC50 threshold 200 nM. Does this compound come in strictly under it? `C=CC(=O)Nc1cc2c(Nc3cc(Cl)c(Cl)cc3F)ncnc2cc1OCCNC(=O)CC`
Reply: YES

Query: Does `C=CC(=O)Nc1cc2c(Nc3ccc(Br)c(Cl)c3F)ncnc2cc1OCCNC(=O)NCC` have IC50 strictly under 200 nM?
Reply: YES

Query: In plain terms, does C=CC(=O)Nc1cc2c(Nc3ccc(Br)cc3F)ncnc2cc1OCCNC(=O)C(CO)N(C)C (stereo not drawn) come in under 200 nM for IC50?
Reply: YES

Query: Lab log: compare recorded IC50 with 200 nM; is it strictly lower for `C=CC(=O)Nc1cc2c(Nc3ccc(Br)cc3F)ncnc2cc1OCC1CCN(C(=O)NC(C)(C)C)CC1` ?
Reply: NO

Query: Regarding C=CC(=O)Nc1cc2c(Nc3ccc(Br)cc3F)ncnc2cc1OCCNC(=O)C1CCCN1C(=O)CC (stereo not drawn) , kindly confirm whether its IC50 is beneath 200 nM.
Reply: NO

Origin of values: patent US8846699B2
